- test.description: Tmax in ICR mouse at 10 mg/kg, po administered via gavage and measured after 10 to 1440 mins by LC/MS/MS analysis
- Format: ADME, organism-based
- protocol.conditions: in vivo, time 10-1440 min
assay.metric: Tmax

QUERY: Item under review: "NS(=O)(=O)c1nnc(NC(=O)CCC2CCCCC2)s1" . Reported Tmax?
RESULT: 30 min

====

- test.description: Apparent permeability across basolateral to apical side in human Caco2 cells
- Format: ADME, cell-based
- protocol.conditions: caco-2
assay.metric: Papp B→A
Answer format: value, then unit.

QUERY: // returns reported Papp B→A for input CC(=O)Nc1nnc(S(N)(=O)=O)s1 [ACETAZOLAMIDE]
RESULT: 0.77 ×10⁻⁶ cm/s

====

- Tested on: Enterococcus faecium
- test.description: Antibacterial activity against Enterococcus faecium NR-31903 incubated for 18 to 20 hrs under aerobic condition by CLSI protocol based broth microdilution assay
- Assay type: functional
- protocol.conditions: time hrs 18-20
assay.metric: MIC
Don't forget the unit after the value.

QUERY: So what's the measured MIC for this one? "NS(=O)(=O)c1nnc(NC(=O)CN2CCOCC2)s1"
RESULT: 2 µg/mL

====

- Tested on: Enterococcus faecium
- test.description: Antibacterial activity against Enterococcus faecium NR-31903 incubated for 18 to 20 hrs under aerobic condition by CLSI protocol based broth microdilution assay
- Type: functional
- protocol.conditions: time hrs 18-20
Here, each record is paired with measured MIC data.
Give a bare numeral; the unit µg/mL is implied.

INSERT INTO assay_data (chemical_string, unit_descriptor, reported_result) VALUES
  ('CC(C)CC(=O)Nc1nnc(S(N)(=O)=O)s1', 'µg/mL', 0.125);

QUERY: API: value(readout=MIC, system=Enterococcus faecium) for record "NS(=O)(=O)c1nnc(NC(=O)CC2CC2)s1"
RESULT: 0.25

====

- test.description: Drug excretion in ICR mouse at 10 mg/kg, po administered via gavage and measured after 1440 mins by LC/MS/MS analysis
- Format: ADME, organism-based
- protocol.conditions: in vivo, read-out: Drug excretion
assay.metric: dose excreted at 24 h (%)
Number in %, nothing else.

QUERY: # lookup: dose excreted at 24 h of "NS(=O)(=O)c1nnc(NC(=O)CCC2CCCCC2)s1"
RESULT: 100

====

- test.description: MRT in ICR mouse at 10 mg/kg, po administered via gavage and measured after 10 to 1440 mins by LC/MS/MS analysis
- Format: ADME, organism-based
- protocol.conditions: in vivo, time 10-1440 min
assay.metric: MRT (h)
Respond numerically; units are h and should not be typed.

QUERY: // returns reported MRT for input "NS(=O)(=O)c1nnc(NC(=O)CCC2CCCCC2)s1"
RESULT: 1.35

====

- System: Enterococcus faecium
- test.description: Antibacterial activity against Enterococcus faecium NR-31903 incubated for 18 to 20 hrs under aerobic condition by CLSI protocol based broth microdilution assay
- Type: functional
- protocol.conditions: time hrs 18-20
// NB: equality with 0.03 µg/mL counts as false; only MIC strictly below is true

INSERT INTO results (compound, measured_on, assigned_label) VALUES
  ('CC(C)(C)C(=O)Nc1nnc(S(N)(=O)=O)s1', 'Enterococcus faecium', 'false'),
  ('NS(=O)(=O)c1nnc(NC(=O)CC2CCCCC2)s1', 'Enterococcus faecium', 'false'),
  ('CC(=O)NC[C@H]1CN(c2ccc(N3CCOCC3)c(F)c2)C(=O)O1 [LINEZOLID]', 'Enterococcus faecium', 'false'),
  ('CC(C)(C)CC(=O)Nc1nnc(S(N)(=O)=O)s1', 'Enterococcus faecium', 'true'),
  ('NS(=O)(=O)c1nnc(NC(=O)CCc2ccccc2)s1', 'Enterococcus faecium', 'false'),
  ('NS(=O)(=O)c1nnc(NC(=O)CCC2CCCCC2)s1', 'Enterococcus faecium', 'true'),
  ('NS(=O)(=O)c1nnc(NC(=O)CC2CCCC2)s1', 'Enterococcus faecium', 'false'),
  ('NS(=O)(=O)c1nnc(NC(=O)C2CCCCC2)s1', 'Enterococcus faecium', 'false');

Alright, here's another compound for you.
QUERY: Quick check: does "NS(=O)(=O)c1nnc(NC(=O)C2CCCC2)s1" have MIC under 0.03 µg/mL?
RESULT: false

Reference source for all entries: ChEMBL document CHEMBL4725360
